Data provenance: paper PMC7402526

System: total dead cells (totalDeadCells)
measurement description: MLTA, total dead cells concentration-response
Format: cell-based
condition context: Homo sapiens, 144 h; dose 0.2 nM, 6 days, normalized to vehicle control; read-out: total_dead normalized cell count
Give measured activity at 0.0002 µM for each item. Keep answers brief.
# number only, unit % dropped from output

So what's the measured activity at 0.0002 µM for this one? CC(=O)c1c(C)c2cnc(Nc3ccc(N4CCNCC4)cn3)nc2n(C2CCCC2)c1=O [palbociclib]
101

Follow-up entry: CN(C)C(=O)c1cc2cnc(Nc3ccc(N4CCNCC4)cn3)nc2n1C1CCCC1 [ribociclib]
117

Follow-up entry: O=C1CCC(N2C(=O)c3ccccc3C2=O)C(=O)N1 (centres unmarked) [thalidomide]
91.6

Follow-up entry: CS(=O)(=O)N1CCN(Cc2cc3nc(-c4cccc5[nH]ncc45)nc(N4CCOCC4)c3s2)CC1 [pictilisib]
105

Follow-up entry: CC(=O)O[C@H]1C(=O)[C@@]2(C)[C@H]([C@H](OC(=O)c3ccccc3)[C@]3(O)C[C@H](OC(=O)[C@H](O)[C@@H](NC(=O)c4ccccc4)c4ccccc4)C(C)=C1C3(C)C)[C@]1(OC(C)=O)CO[C@@H]1C[C@@H]2O [paclitaxel]
105

Follow-up entry: CC(=O)O[C@@]12CO[C@@H]1C[C@H](O)[C@@]1(C)C(=O)[C@H](O)C3=C(C)[C@@H](OC(=O)[C@H](O)[C@@H](NC(=O)OC(C)(C)C)c4ccccc4)C[C@@](O)([C@@H](OC(=O)c4ccccc4)[C@H]21)C3(C)C [docetaxel]
104

Follow-up entry: CCc1cnn2c(NCc3ccc[n+]([O-])c3)cc(N3CCCC[C@H]3CCO)nc12 [dinaciclib]
108

Follow-up entry: CCN1CCN(Cc2ccc(Nc3ncc(F)c(-c4cc(F)c5nc(C)n(C(C)C)c5c4)n3)nc2)CC1 [abemaciclib]
92
